- measurement-protocol: In vivo biodistribution in normal Balb/c mice
- Design: species or system mouse
- experimental-parameters: female, mouse, kidneys, iv, total radioactivity; normal Balb/c mice, 2 h p.i., i.v. tail vein, mean ± SD, n = 4-6; read-out: Kidneys uptake
Where a SMILES comes first, the peptide text is derived from it. [ ]: non-standard residue; d: D form. The star is where a group is joined. DOTA = O=C(O)CN1CCN(CC(=O)O)CCN(CC(=O)*)CCN(CC(=O)O)CC1; βAla = NCCC(=O)O
endpoint: tissue uptake at 2 h (%ID/g)
All answers are understood in %ID/g, so give the number only.

Requested field: tissue uptake at 2 h. Item: CC[C@H](C)[C@H](NC(=O)[C@H](Cc1ccc(O)cc1)NC(=O)[C@@H](NC(=O)[C@H](CCCNC(=N)N)NC(=O)[C@H](CC(=O)O)NC(=O)CCNC(=O)[C@H](CCCCN)NC(=O)CN1CCN(CC(=O)O)CCN(CC(=O)O)CCN(CC(=O)O)CC1)C(C)C)C(=O)N[C@@H](Cc1c[nH]cn1)C(=O)N1CCC[C@H]1C(=O)N[C@@H](Cc1ccccc1)C(=O)N[C@@H](Cc1c[nH]c2ccccc12)C(=O)N[C@@H](CCCCN)C(=O)N[C@@H](Cc1ccc(O)cc1)C(N)=O [^68Ga-DOTA-AngII peptide, metal not drawn] ({DOTA}-K[βAla]DRVYIHPFWKY-NH2)
3.78

---

- measurement-protocol: In vivo biodistribution in normal Balb/c mice
- Parameters: species or system mouse
- experimental-parameters: female, mouse, lungs, iv, total radioactivity; normal Balb/c mice, 45 min p.i., i.v. tail vein, mean ± SD, n = 4-6; read-out: Lungs uptake
Where a SMILES comes first, the peptide text is derived from it. [ ]: non-standard residue; d: D form. The star is where a group is joined. DOTA = O=C(O)CN1CCN(CC(=O)O)CCN(CC(=O)*)CCN(CC(=O)O)CC1; βAla = NCCC(=O)O
endpoint: tissue uptake at 0.75 h (%ID/g)
Number only, in %ID/g; omit the unit.

Requested read-out: tissue uptake at 0.75 h. Entry: CC[C@H](C)[C@H](NC(=O)[C@H](Cc1ccc(O)cc1)NC(=O)[C@@H](NC(=O)[C@H](CCCNC(=N)N)NC(=O)[C@H](CC(=O)O)NC(=O)CCNC(=O)[C@H](CCCCN)NC(=O)CN1CCN(CC(=O)O)CCN(CC(=O)O)CCN(CC(=O)O)CC1)C(C)C)C(=O)N[C@@H](Cc1c[nH]cn1)C(=O)N1CCC[C@H]1C(=O)N[C@@H](Cc1ccccc1)C(=O)N[C@@H](Cc1c[nH]c2ccccc12)C(=O)N[C@@H](CCCCN)C(=O)N[C@@H](Cc1ccc(O)cc1)C(N)=O [^68Ga-DOTA-AngII peptide, metal not drawn] ({DOTA}-K[βAla]DRVYIHPFWKY-NH2)
1.11

---

- measurement-protocol: In vivo tumor targeting and biodistribution in nude mice bearing MDA-MB-231 xenografts
- Set-up: species or system mouse
- experimental-parameters: mouse, tumor (MDA-MB-231 xenograft), total radioactivity; MDA-MB-231 tumor in nude mice, 2 h p.i., unblocked, mean ± SD, n = 4-6; read-out: Tumor uptake
- Experimental: (with 43% wash away from the tumors over 2 h). The amount of radioactivity found for the ^68Ga-labeled AngII peptide analog in the tumors was always more than the radioactivity detected in the blood and muscle. […] In vivo, tumor uptake was conducted as reported previously. […] The percent of the injected dose per gram in the tumors was determined by using a custom-designed Quattro Pro X9 spreadsheet (Corel Corporation, Austin, TX, USA).
Where a SMILES comes first, the peptide text is derived from it. [ ]: non-standard residue; d: D form. The star is where a group is joined. DOTA = O=C(O)CN1CCN(CC(=O)O)CCN(CC(=O)*)CCN(CC(=O)O)CC1; βAla = NCCC(=O)O
endpoint: tissue uptake at 2 h (%ID/g)
Use %ID/g as the unit, but write only the number.

Find the recorded tissue uptake at 2 h belonging to CC[C@H](C)[C@H](NC(=O)[C@H](Cc1ccc(O)cc1)NC(=O)[C@@H](NC(=O)[C@H](CCCNC(=N)N)NC(=O)[C@H](CC(=O)O)NC(=O)CCNC(=O)[C@H](CCCCN)NC(=O)CN1CCN(CC(=O)O)CCN(CC(=O)O)CCN(CC(=O)O)CC1)C(C)C)C(=O)N[C@@H](Cc1c[nH]cn1)C(=O)N1CCC[C@H]1C(=O)N[C@@H](Cc1ccccc1)C(=O)N[C@@H](Cc1c[nH]c2ccccc12)C(=O)N[C@@H](CCCCN)C(=O)N[C@@H](Cc1ccc(O)cc1)C(N)=O [^68Ga-DOTA-AngII peptide, metal not drawn] ({DOTA}-K[βAla]DRVYIHPFWKY-NH2) and report it.
1.25

Source: paper PMC10675340
